Consider the following molecules and their measured EC50 readings.
- System: HEK 293 cells
- protocol-description: toxicity assay on HEK 293 cells (Alamar Blue)
- conditions-used: read-out: HEK 293 EC50; average ± SEM

Examples from the recorded data:
CC(C)CNC(=O)/C=C/c1ccc2c(c1)OCO2 [Compound 7, fagaramide]	364 µM
CC(=O)O[C@@H]1[C@H]2[C@H]3[C@H]([C@H](OC(C)=O)[C@H](OC(C)=O)[C@]2(C)[C@@H]2[C@@H]1[C@]1(C)C(=C[C@H]2C)OC(=O)[C@@]1(C)O)[C@]1(C)[C@H](C[C@@H]2O[C@@H]2[C@@H]1OC(C)=O)C(=O)[C@@H]3O [Compound 3, taccalonolide A]	> 143 µM
CC(=O)O[C@H]1CC[C@]2(C)[C@H]3CC[C@]4(C)C(=CC[C@@]5(C)CCC(C)(C)C[C@H]54)[C@]3(C)CC[C@H]2C1(C)C [Compound 5, taraxerol acetate]	> 427 µM
CCC(=O)O[C@H]1[C@@H](OC(C)=O)[C@H]2[C@H]([C@@H]3[C@@H](OC(C)=O)[C@@H]4[C@H]([C@H](C)C=C5OC(=O)[C@@](C)(O)[C@@]54C)[C@]31C)[C@@H](O)C(=O)[C@H]1C[C@@H]3O[C@@H]3[C@H](OC(C)=O)[C@]21C [Compound 4, Taccalonolide A 12-propanoate]	> 140 µM
COc1ccc(C(=O)C[C@H](O)c2c(O)cc(OC)cc2OC)cc1	> 300 µM

Now for the molecule whose EC50 we want.
Request: Record lookup: for HEK 293 cells, what EC50 belongs to COc1ccc2c(c1OC)CN(C)c1c-2ccc2cc3c(cc12)OCO3 [Compound 6, dihydrochelerythrin] ?
Result: 94.4 µM

###

- System: Leishmania mexicana promastigotes
- protocol-description: resazurin drug sensitivity assay, L. mexicana promastigotes
- Assay type: cell-based
- conditions-used: Leishmania mexicana, a = EC50 of control for 1, 3, 4; read-out: L. mexicana EC50
measure-name: EC50 (nM)
Numbers only here, please. The scale is nM.

Request: Fill blank: measured EC50 of the compound N=C(N)c1ccc(OCCCCCOc2ccc(C(=N)N)cc2)cc1 [PMD, pentamidine isethionate, reference compound] is ____.
Result: 1100

###

- Test system: T. evansi (AnTat 3/3)
- protocol-description: resazurin drug sensitivity assay, T. evansi
- Assay type: cell-based, Trypanosoma evansi
- conditions-used: RF = EC50 (parasite)/EC50(s427 WT)
// label = true if T. evansi RF is not less than 1, otherwise false

COc1ccc2c(c1OC)CN(C)c1c-2ccc2cc3c(cc12)OCO3 [Compound 6, dihydrochelerythrin]	false
CC(C)CNC(=O)/C=C/c1ccc2c(c1)OCO2 [Compound 7, fagaramide]	false
COc1ccc(C(=O)C[C@H](O)c2c(O)cc(OC)cc2OC)cc1	true
CCC(=O)O[C@H]1[C@@H](OC(C)=O)[C@H]2[C@H]([C@@H]3[C@@H](OC(C)=O)[C@@H]4[C@H]([C@H](C)C=C5OC(=O)[C@@](C)(O)[C@@]54C)[C@]31C)[C@@H](O)C(=O)[C@H]1C[C@@H]3O[C@@H]3[C@H](OC(C)=O)[C@]21C [Compound 4, Taccalonolide A 12-propanoate]	true

Request: Hello, I need to know if CC(=O)O[C@H]1CC[C@]2(C)[C@H]3CC[C@]4(C)C(=CC[C@@]5(C)CCC(C)(C)C[C@H]54)[C@]3(C)CC[C@H]2C1(C)C [Compound 5, taraxerol acetate] has measured T. evansi RF not below 1. Thanks!
Result: false
